Target: T1, FcRn-p3 fusion protein (human, UniProt P55899 24-297; P61769 21-119)
T1 construct: baculovirus expressed; coated on ELISA wells; not shown: amino terminal part of bacteriophage p3 protein and CVDE protein
T1 sequence (P55899 24-297, chain 1 of 2): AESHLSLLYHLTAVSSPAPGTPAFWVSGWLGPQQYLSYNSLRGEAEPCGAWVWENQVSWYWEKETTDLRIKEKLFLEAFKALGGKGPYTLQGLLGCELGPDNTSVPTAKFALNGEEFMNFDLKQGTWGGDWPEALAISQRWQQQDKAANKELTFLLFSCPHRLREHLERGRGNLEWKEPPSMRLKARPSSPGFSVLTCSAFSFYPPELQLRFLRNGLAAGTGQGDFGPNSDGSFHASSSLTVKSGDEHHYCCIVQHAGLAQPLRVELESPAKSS
T1 sequence (P61769 21-119, chain 2 of 2): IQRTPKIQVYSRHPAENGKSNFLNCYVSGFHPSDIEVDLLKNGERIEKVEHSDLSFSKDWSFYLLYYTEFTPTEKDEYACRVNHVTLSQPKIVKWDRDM
Experiment: phage ELISA pH6 (est.)
Each entry below carries its reported Ratio/FWT.
API: value field is a number in fold; no unit string.

Example results:
Entry T4A_42 (other, EU numbering) GPPCPAPELLGGPSVFLFPPKPKDTLMISRTPEVTCVVVDVSHEDPEVKFNWYVDGVEVHNAKTKPREEQYNSTYRVVSVLTVLHQDWLDGKEYKCKVSNKALPAPIEKTISKAKGQPREPQVYTLPPSRDELTKNRVSLTCLVKGFYPSDIAVEWESNGQPENNYKTTPPVLDSDGSFFLYSKLTVDKSRWQQGNVFSCSVMHEALHYHYTQKSLSLSPGK : reported Ratio/FWT = ? 14.7

Same question, T7A_18 (other, EU numbering) CPPCPAPELLGGPSVFLFPPKPKDTLMISRTPEVTCVVEDVSHEDPEVKFNWYVDGVEVHNAKTKPREEQYNSTYRVVSVLTVLHQDWLNGKEYKCKVSNKALPAPIEKTISKAKGQPREPQVYTLPPSRDELTKNQVSLTCLVKGFYPSDIVVEWESNGRPENNYKTTPPVLDSDGSFFLYSKLTVDKSRWQQGNVFSCSVMHEALHSHYTQKSLSLSPGK this time 8.9

Continuing:
Entry T8A_24 (other, EU numbering) CPPCPAPELLGGPSVFLFPPKPKDTLMISRTPEVTCVVEDVSHEDPEVKFNWYVDGVEVHNAKTKPREEQYNSTYRVVSVLPVLHQDWLNGKEYKCKVSNKALPAPIEKTISKAKGQPREPQVYTLPPSRDELTKNQVSLTCLVKGFYPSDIVVEWESNGQPENNYKTTPPVLDSDGSFFLYSKLTVDKSRWQQGNVFSCSVMHEALHSHYTQKSLSLSPGK : reported Ratio/FWT = ? 11.1

Same question, T3A_15 (other, EU numbering) CPPCPAPELLGGPSVFLFPPKPKDTLMISRTPEVTCVVEDVSHEDPEVKFNWYVDGVEVHNAKTKPREEQYNSTYRVVSVLTVLHQDWLNGKEYKCKVSNKALPAPIEKTISKAKGQPREPQVYTLPPSRDELTKNQVSLTCLVKGFYPSDIVVEWESNGQPENNYKTAPPVLDSDGSLFLYSKLTVDKSRWQQGNVFSCSVMHEALHSHYTQKSLSLSPGK this time 8.9

Same question, C3A_07 (other, EU numbering) CPPCPAPELLGGPSVFLFPPKPKDTLMISRTPEVTCVVVDVSHEDPEVKFNWYVDGVEVHNAKTKPREEQYNSTYRVVSVLPVLHQDWLNGKEYKCKVSNKALPTPIEKTISKAKGQPREPQVYTLPPSRDELTKNQVSLTCLVKGFYPSDIVVEWESNGQPENNYKTTPPVLDSDGSFFLYSKLTVDKSRWQQGNVFSCSVMHEALHNHYTQKSLSLSPGK this time 4.2

These entries and their values trace back to patent USRE46585.
